Let's look at some binders and their measured Reduction of Aggregation (%), filter trap assay.
- assayed_system: GFP-HTTQ74 reporter construct
- procedure_details: cell-based or functional assay
Kindly answer with a numeric value in %, unit omitted.

binder	result_unit	val
Construct 52, JB1-QBP1-QBP1 (19) (designed binder) MGKDYYQTLGLARGASDEEIKRAYRRQALRYHPDKNKEPGAEEKFKEIAEAYDVLSDPRKREIFDRYGEEGLKGSGGGGSSNWKWWPGIFDLEGGGGSSNWKWWPGIFDLE	%	96.9
Construct 39, JB1-QBP1-QBP1 (6) (designed binder) MGKDYYQTLGLARGASDEEIKRAYRRQALRYHPDKNKEPGAEEKFKEIAEAYDVLSDPRKREIFDRYGEEGLKGSEAAAKSNWKWWPGIFDEAAAKSNWKWWPGIFDLE	%	98.1
Construct 4, JB1-2XQBP1 (designed binder) MGKDYYQTLGLARGASDEEIKRAYRRQALRYHPDKNKEPGAEEKFKEIAEAYDVLSDPRKREIFDRYGEEGLKGSDIGGGGSGGGGSGGGGSGGGGSAAASNWKWWPGIFDGLESNWKWWPGIFD	%	24.9
Construct 53, Flag-QBP1-JB1-QBP1-Flag (designed binder) MDYKDDDDKGGTGSSNWKWWPGIFDEFMGKDYYQTLGLARGASDEEIKRAYRRQALRYHPDKNKEPGAEEKFKEIAEAYDVLSDPRKREIFDRYGEEGLKGSGGGGSGGGGSGGGGSGGGGSAAASNWKWWPGIFDLESRGDYKDDDDK	%	79.9

Query :: Any idea what its Reduction of Aggregation (%), filter trap assay is? The binder is Construct 55, QBP1-JB1-QBP1 (2) (designed binder) MSNWKWWPGIFDLEGKDYYQTLGLARGASDEEIKRAYRRQALRYHPDKNKEPGAEEKFKEIAEAYDVLSDPRKREIFDRYGEEGLKGSGGGSSNWKWWPGIFDLE
Result :: 9.45

Query :: Moving on to Construct 36, JB1-QBP1-QBP1 (3) (designed binder) MGKDYYQTLGLARGASDEEIKRAYRRQALRYHPDKNKEPGAEEKFKEIAEAYDVLSDPRKREIFDRYGEEGLKGSSNWKWWPGIFDGGGGSSNWKWWPGIFDLE
Result :: 95.7

Query :: Moving on to Construct 57, JB1-QBP1-JB1-QBP1 (designed binder) MGKDYYQTLGLARGASDEEIKRAYRRQALRYHPDKNKEPGAEEKFKEIAEAYDVLSDPRKREIFDRYGEEGLKGSGSSNWKWWPGIFDEFMGKDYYQTLGLARGASDEEIKRAYRRQALRYHPDKNKEPGAEEKFKEIAEAYDVLSDPRKREIFDRYGEEGLKGSGGGGSGGGGSGGGGSGGGGSAAASNWKWWPGIFDLESRGDYKDDDDK
Result :: 94.1
